# study system: GSK3b (GST-full length GSK3b) (Homo sapiens)
# Construct: GST-full length GSK3b: [SignalChem G08-9G]; purchased SignalChem G08-9G
# Sequence (P49841 whole entry): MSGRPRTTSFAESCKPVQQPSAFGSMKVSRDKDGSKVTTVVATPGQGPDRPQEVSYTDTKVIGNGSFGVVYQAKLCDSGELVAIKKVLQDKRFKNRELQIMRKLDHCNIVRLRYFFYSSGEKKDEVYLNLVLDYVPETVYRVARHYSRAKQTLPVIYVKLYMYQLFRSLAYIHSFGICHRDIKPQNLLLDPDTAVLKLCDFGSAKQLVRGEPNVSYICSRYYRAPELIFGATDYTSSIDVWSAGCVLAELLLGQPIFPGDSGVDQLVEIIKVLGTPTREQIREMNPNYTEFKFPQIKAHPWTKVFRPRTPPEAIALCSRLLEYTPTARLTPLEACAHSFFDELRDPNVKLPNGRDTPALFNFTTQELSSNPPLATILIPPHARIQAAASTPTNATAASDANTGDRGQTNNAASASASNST
# protocol details: GSK3b TR-FRET kinase inhibition assay
# Type: biochemical
# condition description: 1 mM ATP; Table 3; read-out: GSK3b TR-FRET 1 mM ATP Average IC50
experimental readout: IC50

>>> df
                                   compound     assay_result
0  CC1(C)CC(=O)C2=C(C1)Nc1ncc(F)c(C#N)c1C2(C)c1ccccc1 (single isomer, unassigned) [Compound 121B]  1000 to 5000 nM

Hi team, please reply with IC50 for each item in this list.
1. CC1(C)CC(=O)C2=C(C1)Nc1ncccc1C2(C)c1cccc(-c2ccncc2OCC(F)F)c1 (single isomer, unassigned) [Compound 162B]
2. CC1(C)CC(=O)C2=C(C1)Nc1ncc3c(c1C2(C)c1ccccc1)CCC3 (single isomer, unassigned) [Compound 118A]

100 to 1000 nM
5000 to 20000 nM

###

# study system: GSK3a (GST-full length GSK3a) (Homo sapiens)
# Construct: GST-full length GSK3a [SignalChem G08-10G]; purchased SignalChem G08-10G
# Sequence (P49840 whole entry): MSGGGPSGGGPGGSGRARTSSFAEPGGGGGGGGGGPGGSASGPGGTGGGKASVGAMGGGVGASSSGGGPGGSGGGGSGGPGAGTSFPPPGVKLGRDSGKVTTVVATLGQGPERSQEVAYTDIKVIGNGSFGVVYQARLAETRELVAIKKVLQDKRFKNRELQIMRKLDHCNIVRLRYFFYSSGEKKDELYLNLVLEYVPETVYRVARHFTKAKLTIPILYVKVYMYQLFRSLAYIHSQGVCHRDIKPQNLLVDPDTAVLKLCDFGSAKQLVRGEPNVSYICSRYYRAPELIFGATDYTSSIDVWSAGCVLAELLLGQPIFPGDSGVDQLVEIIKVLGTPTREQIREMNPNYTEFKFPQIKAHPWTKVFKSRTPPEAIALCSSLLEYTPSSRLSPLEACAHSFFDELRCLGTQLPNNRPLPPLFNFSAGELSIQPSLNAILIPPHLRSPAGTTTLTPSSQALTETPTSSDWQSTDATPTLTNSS
# protocol details: GSK3a TR-FRET kinase inhibition assay
# Assay type: biochemical
# condition description: 1 mM ATP; Table 5; read-out: GSK3α TR-FRET 1 mM ATP Average IC50
# Method: TR-FRET assay was performed in a white, 384 well, low volume, flat bottom plate (Grenier). After a 30 minute preincubation in assay buffer with the indicated concentration of compound, the kinase activity was initiated by the addition of the substrates. […] After 60 min at room temperature the plate was read on Envision plate reader using Ex: 340 nm, Em: 615 nm and […]. The normalized 665/615 Signal ratio versus log compound concentration was analyzed by XLFIT to yield IC50 values.
experimental readout: IC50

Quick batch: IC50 for everything below.
1. Cc1c(C2(C)C3=C(CC(C)(C)CC3=O)Nc3ncc(F)cc32)cccc1S(C)(=O)=O (single isomer, unassigned) [643B]
2. CC1(C)CC(=O)C2=C(C1)Nc1ncc(CO)c(C#N)c1C2(C)c1ccccc1 (single isomer, unassigned) [613B]
3. CC(C)Oc1cccc(C2(C)C3=C(CC(C)(C)CC3=O)Nc3ncc(C(F)(F)F)cc32)c1 (single isomer, unassigned) [648B]

1. 5 to 20 µM
2. 5 to 20 µM
3. 1 to 5 µM

Look up and report measured IC50 (GSK3a (GST-full length GSK3a) (Homo sapiens)) for the following compound: CC(C)Oc1cccc(C2(C)C3=C(CC(C)(C)CC3=O)Nc3ncc(F)c(C#N)c32)c1 (single isomer, unassigned) [639B]
≤ 0.1 µM

###

# study system: GSK3a (GST-full length GSK3a) (Homo sapiens)
# Construct: GST-full length GSK3a [SignalChem G08-10G]; purchased SignalChem G08-10G
# protocol details: GSK3a TR-FRET kinase inhibition assay
# Format: biochemical
# condition description: 100 μM ATP; read-out: GSK3a 100 μM ATP Average IC50
pIC50: −log10 of the molar value.
I'd appreciate it if you could supply pIC50 values for the items below.

Sample records with pIC50:
>>> df
                                   compound  experimental_readout  assay_result
0  CC1(C)CC(=O)C2=C(C1)Nc1ncccc1C2(C)c1ccccc1 (single isomer, unassigned) [Compound 101A]                 pIC50  6.00 to 7.00
1  CCc1ccnc2c1C(C)(c1ccccc1)C1=C(CC(C)(C)CC1=O)N2 (single isomer, unassigned) [Compound 112A]                 pIC50        ≥ 7.00
2  Cc1ccnc2c1C(C)(c1ccccc1)C1=C(CC(C)(C)CC1=O)N2 (single isomer, unassigned) [Compound 104A]                 pIC50        ≥ 7.00

Answer for every listed entry: what is its pIC50? The entries follow.
1. CC1(C)CC(=O)C2=C(C1)Nc1ncc(C3CCC3)cc1C2(C)c1ccccc1 (single isomer, unassigned) [Compound 122A]
2. CC(C)(C)Cc1ccnc2c1C(C)(c1ccccc1)C1=C(CC(C)(C)CC1=O)N2 (single isomer, unassigned) [Compound 130B]
3. CC1(C)CC(=O)C2=C(C1)Nc1ncccc1C2(C)c1ccccc1 (single isomer, unassigned) [Compound 101B]
4. CC(C)(C)Cc1ccnc2c1C(C)(c1ccccc1)C1=C(CC(C)(C)CC1=O)N2 (single isomer, unassigned) [Compound 130A]

1. 5.30 to 6.00
2. 5.30 to 6.00
3. 4.22 to 4.70
4. 6.00 to 7.00

List reported pIC50 for each of these compounds:
1. CC(C)c1cnc2c(c1)C(C)(c1ccccc1)C1=C(CC(C)(C)CC1=O)N2 (single isomer, unassigned) [Compound 119A]
2. CCC1(c2ccccc2)C2=C(CC(C)(C)CC2=O)Nc2ncc(F)cc21 (single isomer, unassigned) [Compound 114A]
3. CCC1(c2ccccc2)C2=C(CC(C)(C)CC2=O)Nc2ncccc21 (single isomer, unassigned) [Compound 102A]
4. CCC1(c2cccc(-c3cncn3C(C)C)c2)C2=C(CC(C)(C)CC2=O)Nc2ncccc21 (single isomer, unassigned) [Compound 149A]
5. C=Cc1ccnc2c1C(C)(c1ccccc1)C1=C(CC(C)(C)CC1=O)N2 (single isomer, unassigned) [Compound 111A]
6. CCC1(c2ccccc2)C2=C(CC(C)(C)CC2=O)Nc2ncc(C(F)(F)F)cc21 (single isomer, unassigned) [Compound 133A]

6.00 to 7.00
≥ 7.00
6.00 to 7.00
≥ 7.00
≥ 7.00
6.00 to 7.00
